- Assay System: UniProtKB P29274
- Sequence (P29274 whole entry): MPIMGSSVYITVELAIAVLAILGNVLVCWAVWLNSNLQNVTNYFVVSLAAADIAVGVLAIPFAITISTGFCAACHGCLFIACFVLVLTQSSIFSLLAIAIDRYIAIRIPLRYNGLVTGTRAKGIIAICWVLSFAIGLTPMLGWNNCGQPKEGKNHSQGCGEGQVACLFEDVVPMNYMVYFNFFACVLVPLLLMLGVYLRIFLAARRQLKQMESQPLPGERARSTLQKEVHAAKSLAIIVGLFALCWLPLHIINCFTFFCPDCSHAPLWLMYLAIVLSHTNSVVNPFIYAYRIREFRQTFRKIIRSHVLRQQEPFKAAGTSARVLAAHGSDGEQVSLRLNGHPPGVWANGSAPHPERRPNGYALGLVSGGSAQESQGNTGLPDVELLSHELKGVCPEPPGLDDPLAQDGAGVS
- Test Method Notes: A2a receptor affinity radioligand binding assay ([3H] SCH58261, membranes from HEK293 or CHO cells)
- Protocol Conditions: unstarred values: radioligand binding
pIC50: −log10 of the molar value.
Label yes (1) for high-side pIC50 (at or above 9) and no (0) for low-side pIC50 (below it).

Prompt: Could you verify whether the entry COc1cccc2c1nc(N)n1nc(C3CN(c4cn(CC(C)(C)O)nc4C)CC(F)(F)C3)nc21 (single isomer, unassigned) [Example 158B] shows pIC50 of no less than 9?
Completion: yes (1)

Prompt: Could you verify whether the entry COc1ccc2c(c1)nc(N)n1nc([C@H]3C[C@@H](C)CN(c4cnn(CC(C)(C)O)c4)C3)nc21 [Example 195A] shows pIC50 of no less than 9?
Completion: no (0)

Prompt: Could you verify whether the entry COc1ccc2c(c1)nc(N)n1nc([C@@H]3CCCN(c4ccc(OC(F)F)nc4)C3)nc21 [Example 191] shows pIC50 of no less than 9?
Completion: no (0)

Prompt: Could you verify whether the entry COc1cccc2c1nc(N)n1nc([C@@H]3CCCN(c4cnn(C5CCCC5(C)O)c4)C3)nc21 (single isomer, unassigned) [Example 59B] shows pIC50 of no less than 9?
Completion: yes (1)

Prompt: Could you verify whether the entry C[C@H]1CC[C@@H](c2nc3c4ccc(Br)cc4nc(N)n3n2)CN1c1cnn(CC(C)(C)O)c1 (single isomer, unassigned) [Example 198] shows pIC50 of no less than 9?
Completion: yes (1)

Prompt: Could you verify whether the entry COc1cccc2c1nc(N)n1nc([C@@H]3CCO[C@H](c4cnn(C)c4)C3)nc21 [Example 139D] shows pIC50 of no less than 9?
Completion: no (0)

----------
Record form. Attribute: pIC50. Fill in for each entry.
- Assay System: human A2b adenosine receptor (Homo sapiens (Human))
- Sequence (P29275 whole entry): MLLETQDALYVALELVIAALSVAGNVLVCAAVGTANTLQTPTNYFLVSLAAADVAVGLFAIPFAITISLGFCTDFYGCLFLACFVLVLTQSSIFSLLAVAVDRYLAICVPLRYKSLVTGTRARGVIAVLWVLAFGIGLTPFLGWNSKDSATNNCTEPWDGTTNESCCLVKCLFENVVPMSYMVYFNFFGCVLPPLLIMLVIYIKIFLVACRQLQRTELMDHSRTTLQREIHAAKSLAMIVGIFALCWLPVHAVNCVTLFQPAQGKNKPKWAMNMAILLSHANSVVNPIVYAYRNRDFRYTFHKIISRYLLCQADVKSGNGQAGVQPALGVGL
- Test Method Notes: A2B antagonism in cAMP cell-based assay (LANCE cAMP, HEK293 cells, 600 nM adenosine)
- Protocol Conditions: values marked *: cAMP cell-based assay
By convention, pIC50 is the negative base-10 log of a molar concentration.

Prompt: Quick one: pIC50 for COc1cccc2c1nc(N)n1nc([C@@H]3CCCN(c4ncn(C)n4)C3)nc21 ?
Completion: 7.11

Prompt: Quick one: pIC50 for COc1ccc2c(c1)nc(N)n1nc([C@H]3C[C@@H](C)CN(c4cn([C@@H](C)[C@H](C)O)nc4C)C3)nc21 [Example 219A] ?
Completion: 5.70

Prompt: Quick one: pIC50 for Nc1nc2c(Cl)cccc2c2nc(C3CCCN(c4cnn(C5CC5)c4)C3)nn12 (racemic) ?
Completion: 6.94

Prompt: Quick one: pIC50 for COc1cccc2c1nc(N)n1nc([C@@H]3CCCN(c4ccc(C(F)(F)F)cn4)C3)nc21 ?
Completion: 6.98

Prompt: Quick one: pIC50 for COc1cccc2c1nc(N)n1nc(C3CN(c4cnn(CC(C)(C)O)c4)CC(F)(F)C3)nc21 (single isomer, unassigned) [Example 156B] ?
Completion: 5.86

Prompt: Quick one: pIC50 for COc1ccc2c(c1)nc(N)n1nc([C@@H]3C[C@H](C)CN(c4cn([C@H](C)[C@@H](C)O)nc4C)C3)nc21 [Example 219B] ?
Completion: 6.00

Prompt: Quick one: pIC50 for COc1cccc2c1nc(N)n1nc([C@@H]3CCCN(c4ccc(=O)n(CC(F)(F)F)c4)C3)nc21 ?
Completion: 7.20

Prompt: Quick one: pIC50 for COc1ccc2c(c1)nc(N)n1nc([C@@H]3CCCN(c4cnn(C5CC5)c4)C3)nc21 ?
Completion: 6.85

Prompt: Quick one: pIC50 for COc1ccc2c(c1)nc(N)n1nc([C@@H]3CCCN(c4cnn(C(C)(C)[C@H](C)O)c4)C3)nc21 [Example 225A] ?
Completion: 7.49

Prompt: Quick one: pIC50 for COc1cccc2c1nc(N)n1nc([C@@H]3CCCN(c4cnn([C@H]5CC[C@H](O)C5)c4)C3)nc21 ?
Completion: 7.61

Prompt: Quick one: pIC50 for COc1cccc2c1nc(N)n1nc([C@@H]3CCCN(c4ccc(=O)n(C5CC5)c4)C3)nc21 ?
Completion: 7.23

Prompt: Quick one: pIC50 for COc1cccc2c1nc(N)n1nc(C3CCC(C)N(c4cnn(CC(C)(C)O)c4)C3)nc21 (single isomer, unassigned) [Example 143C] ?
Completion: 6.19

Prompt: Quick one: pIC50 for COc1cccc2c1nc(N)n1nc([C@@H]3CCCN(c4cnn(CC5CCC5)c4)C3)nc21 ?
Completion: 6.68

Prompt: Quick one: pIC50 for COc1cccc2c1nc(N)n1nc([C@@H]3CCCN(c4cnn(C(C)(C)C)c4)C3)nc21 ?
Completion: 7.52

Prompt: Quick one: pIC50 for COc1cccc2c1nc(N)n1nc([C@@H]3CCCN(c4cnn(CC(C)(C)N)c4)C3)nc21 ?
Completion: 6.49

Prompt: Quick one: pIC50 for CCn1cc(N2C[C@H](c3nc4c5cccc(OC)c5nc(N)n4n3)CC(F)(F)C2)cn1 [Example 153B] ?
Completion: 6.17

Prompt: Quick one: pIC50 for Cn1cc(N2CCCC(c3nc4c5cccc(F)c5nc(N)n4n3)C2)cn1 (single isomer, unassigned) [Example 131B] ?
Completion: 6.92

Prompt: Quick one: pIC50 for COc1cccc2c1nc(N)n1nc([C@@H]3CCCN(c4cnc(C5CC5)n4C)C3)nc21 ?
Completion: 6.73
